# System: HCC 2998
# experimental-details: NCI tumour cell line growth inhibition, 48 h
Calls of active or inactive are those of the source. Cut-off read from the data, not from the text of the source: active = GI50 up to about 1.1 µM and inactive = higher.
Give measured GI50 for each item. Keep answers brief.

(Q) Suppose we examine the compound CN(CCCNC(=O)c1cn(C)c2c1ccc1ccccc12)CCCNC(=O)c1cn(C)c2c1ccc1ccccc12 ; what GI50 value has been reported?
(A) 1.41 µM (inactive)

(Q) Do the same for CCc1cccc(C)c1NC(=O)C(=O)Cc1nc2ccccc2o1 please
(A) > 100 µM (inactive)

(Q) What would you report for CCOC(=O)/C=C1\C[C@H](NC(=O)OCc2ccccc2)C(=O)N1CC(=O)OCC ?
(A) > 100 µM (inactive)

(Q) Consider next the compound CC1SC2=NC3=C(c4ccccc4C3=O)C(c3ccc(Br)cc3)N2C1=O (stereo not given) in the same way.
(A) 60.8 µM (inactive)

(Q) Also COc1ccc(C2=NNC(=O)c3ccccc3N2c2nc(-c3cccs3)nc3cc(OC)c(OC)cc23)cc1 , if possible.
(A) 2.96 µM (inactive)

(Q) Follow-up entry: COc1cccc2c(NNc3ccccc3)c3ccc([N+](=O)[O-])cc3nc12
(A) 32.7 µM (inactive)

(Q) Also need [N-]=[N+]=CC(=O)COC(=O)c1ccccc1 , thanks.
(A) > 100 µM (inactive)

(Q) Lookup COCC(OC)C(CC=C(C#N)C#N)OC (stereo not given)
(A) > 100 µM (inactive)

(Q) Check CC(=O)Nc1nc(C)c(S(=O)(=O)NC(=O)NC2NC(=O)NC2=O)s1 (stereo not given) too.
(A) > 100 µM (inactive)

(Q) What do we get for COc1ccc2c(c1)CCN=C2c1ccccc1CCCCl ?
(A) 6.25 µM (inactive)

(Q) Next up: CN(C=O)/C=C/c1cc(O)ccc1O
(A) > 63 µM (inactive)

(Q) Could you do the same for COC(=O)C1CC23C=CCN4CC(C2C)C2(c5ccccc5NC12)C43 (stereo not given) , please?
(A) > 100 µM (inactive)

(Q) Further, for N#Cc1ccc(/C=[N+](/C=c2ccc(=C=[N-])cc2)N(CCO)C2=NCCN2)cc1 ?
(A) > 100 µM (inactive)

(Q) Input O=c1nc2ccc3sc4ccccc4c(=O)c3n2c(=O)[nH]1
(A) > 100 µM (inactive)

(Q) What do you have for Cc1cc(C)nc(NS(=O)(=O)c2ccc(NC(=O)c3ccc4nc5ccccc5c(Nc5ccc(S(=O)(=O)Nc6nc(C)cc(C)n6)cc5)c4c3)cc2)n1 ?
(A) 61.8 µM (inactive)

(Q) // same read-out, input: C1=C2SSC3=CC=C(SSc4ccc(s4)SSC4=CC=C(SSC(=C1)S2)S4)S3
(A) > 100 µM (inactive)

(Q) Can you handle COc1ccc(C(=O)N(C(=O)N2CCN(c3ccccc3)CC2)S(=O)(=O)c2ccccc2)cc1 next?
(A) 52.6 µM (inactive)

(Q) Next compound up: O=C(OCc1ccccc1)N1CCN(C(=O)OCc2ccccc2)CCN(C(=O)OCc2ccccc2)CCN(C(=O)OCc2ccccc2)CCN(C(=O)OCc2ccccc2)CC1
(A) > 100 µM (inactive)

(Q) Likewise for CC(=O)Oc1ccc2c(c1)CC[C@@H]1C2[C@@H](O[N+](=O)[O-])C[C@@]2(C)C1CC[C@@H]2O[N+](=O)[O-] (stereo not given in full) ?
(A) 1.63 µM (inactive)

(Q) Please do the same for c1ccc2cc3c(cc2c1)OP1(Oc2cccc4cccnc24)(O3)Oc2cc3ccccc3cc2O1 as well.
(A) 8.59 µM (inactive)

(Q) Another compound to look at: c1ccc(SC23C4C5C6C4C2C6C53)nc1 (stereo not given)
(A) > 100 µM (inactive)

(Q) Lookup O=C1N[C@@H](O)[C@@H]2ON=C(c3ccccc3)[C@H]12
(A) > 100 µM (inactive)

(Q) # iterate: O=C(COc1ccc2c(=O)cc(-c3ccc(Cl)cc3)oc2c1)N1CCN(c2ccccc2)CC1
(A) > 100 µM (inactive)

(Q) # repeat for Cc1ccsc1/C=N/Nc1ncccn1
(A) > 100 µM (inactive)

(Q) Now consider CC(C)NC(=O)OCc1c2c(n(C)c1COC(=O)NC(C)C)-c1cc(Cl)c(Cl)cc1CC2 and answer again.
(A) 14.9 µM (inactive)
